The reported measurements were obtained from patent US6235751A.

- test_system: gyrase of E. coli (Escherichia coli, UniProt P0AES4+P0AES6)
- Sequence (P0AES4 whole entry, one chain of several): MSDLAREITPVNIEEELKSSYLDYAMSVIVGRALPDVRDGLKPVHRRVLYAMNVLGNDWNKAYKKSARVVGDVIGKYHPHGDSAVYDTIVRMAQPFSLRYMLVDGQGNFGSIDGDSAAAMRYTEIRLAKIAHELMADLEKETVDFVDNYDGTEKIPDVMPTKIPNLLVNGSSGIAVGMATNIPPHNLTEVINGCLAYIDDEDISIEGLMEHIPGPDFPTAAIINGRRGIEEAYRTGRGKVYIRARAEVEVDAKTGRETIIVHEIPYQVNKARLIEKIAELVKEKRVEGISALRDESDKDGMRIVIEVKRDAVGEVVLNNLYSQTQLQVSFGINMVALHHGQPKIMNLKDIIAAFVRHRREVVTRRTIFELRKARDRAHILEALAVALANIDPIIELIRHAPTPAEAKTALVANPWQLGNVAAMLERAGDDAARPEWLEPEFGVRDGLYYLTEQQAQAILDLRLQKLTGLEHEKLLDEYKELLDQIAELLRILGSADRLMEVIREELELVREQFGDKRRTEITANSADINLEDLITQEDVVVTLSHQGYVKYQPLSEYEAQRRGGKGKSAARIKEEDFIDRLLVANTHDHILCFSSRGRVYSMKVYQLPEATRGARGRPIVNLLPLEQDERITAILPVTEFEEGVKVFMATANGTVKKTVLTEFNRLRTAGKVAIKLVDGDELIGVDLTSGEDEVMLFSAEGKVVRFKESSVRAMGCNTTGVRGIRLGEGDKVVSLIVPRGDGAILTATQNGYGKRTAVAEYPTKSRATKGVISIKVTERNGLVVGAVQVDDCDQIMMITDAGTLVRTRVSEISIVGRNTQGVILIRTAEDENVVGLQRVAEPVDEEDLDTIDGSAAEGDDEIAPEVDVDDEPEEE
- assay_name: Inhibition of gyrase enzyme activity
- Assay type: biochemical
- Design: unit not given here
- settings: concentration to inhibit the enzyme activity of gyrase of E. coli
measurement_name: IC100, Gyrase

compound="CC1CN(c2c(F)c(N)c3c(=O)c(C(=O)O)cn(C4CC4)c3c2F)CC(C)N1 (stereo not shown) [Sparfloxacin, reference compound]" measured_result=1.0
compound="O=C(O)c1cn(C2CC2)c2cc(N3CCNCC3)c(F)cc2c1=O [Ciprofloxacin, reference compound]" measured_result=0.5
compound="Cc1c(N2CC(CN)C(OCc3cccnc3)C2)c(F)cn2c(=O)c(C(=O)O)cc(C3CC3)c12 (stereo not shown)" measured_result=0.5
compound=Cc1c(N2CC3=CCCN[C@H]3C2)c(F)cn2c(=O)c(C(=O)O)cc(C3CC3)c12 measured_result=0.5
